Molecular target: FP receptor (Homo sapiens, UniProt P43088)
Sequence (P43088 whole entry): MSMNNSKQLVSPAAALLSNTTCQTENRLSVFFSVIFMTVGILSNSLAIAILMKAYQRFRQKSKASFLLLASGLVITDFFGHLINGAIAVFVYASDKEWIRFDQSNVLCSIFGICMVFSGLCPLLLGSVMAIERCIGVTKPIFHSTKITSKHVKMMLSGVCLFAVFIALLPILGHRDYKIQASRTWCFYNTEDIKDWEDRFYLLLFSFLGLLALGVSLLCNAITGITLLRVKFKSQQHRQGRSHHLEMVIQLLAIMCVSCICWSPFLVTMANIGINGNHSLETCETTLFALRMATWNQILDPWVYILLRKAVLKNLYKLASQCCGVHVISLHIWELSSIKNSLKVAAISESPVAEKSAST
Experiment: Antagonist Ca2+ assay: FP antagonists on PGF2α-stimulated Ca2+ transients in MYLA cells
Type: cell-based
Set-up: endogenous in cells; host or cells: MYLA cells (conditionally immortalised human myometrial cells; hTERT + temperature-sensitive SV40 large T)
Settings: 300 pM–10 µM antagonist in the presence of 1 µM PGF2α, N = 3, read-out: IC50, effect on frequency of Ca2+ oscillations

compound: Cc1c(-c2ccccc2)nc2ccc(Br)cc2c1C(=O)NCC(CCC(=O)O)c1ccccc1Cl (stereo not shown)
quantity unit: nM
IC50: 154
--
compound: CC(C)Cn1ncc2cc(Cl)cc(Cn3nc(N)c4cc(C(=O)O)ccc43)c21
quantity unit: nM
IC50: 978
--
compound: O=C(N[C@@H](CCO)c1ccc(F)cc1)[C@@H]1SCCN1S(=O)(=O)c1ccc(-c2ccccc2)cc1
quantity unit: nM
IC50: 1980
--
compound: O=C(N[C@H](c1ccc(F)cc1)[C@H]1CCS(=O)(=O)C1)[C@@H]1CCN1S(=O)(=O)c1ccc(-c2cccnc2)cc1
quantity unit: nM
IC50: 22.1
